Would you kindly list selectivity ratio for each of these molecules?
PROTOCOL NOTES: Selectivity index, ratio of CC50 for human HEK293 cells to EC50 for antischistosomal activity against adult stage of Schistosoma mansoni
Format: toxicity
MEASUREMENT PARAMETERS: read-out: Ratio CC50/EC50

Record summary for O=C(Nc1ccc(C(F)(F)F)cc1)c1ccc(C(F)(F)F)cc1 : reported selectivity ratio = > 16

Record summary for O=C(Nc1cccc(C(F)(F)F)c1)c1ccc(C(F)(F)F)cc1 : reported selectivity ratio = 10.1

Record summary for O=C(Nc1ccc(F)c(F)c1)c1ccc(C(F)(F)F)cc1 : reported selectivity ratio = 3.84

Record summary for O=C(Nc1ccc(Cl)c(Cl)c1)c1ccc(C(F)(F)F)cc1 : reported selectivity ratio = 123

Record summary for Cc1ccc(NC(=O)c2ccc(C(F)(F)F)cc2)cc1C : reported selectivity ratio = > 5.4
